Tested on: Staph. aureus (Meth-Res) A-15097
Assay: MIC, tube dilution, Staphylococcus aureus A15097 (Meth-Res)
Format: cell-based
Conditions: Staphylococcus aureus, Staph. aureus A15097 (Meth-Res); overnight 37° C.; read-out: Minimum Inhibitory Concentration (M.I.C.)
For each record, write down the corresponding MIC.
Quick note: give the figure in µg/mL, leave out the unit.

MIC for CSC1C(=O)N2C(C(=O)O)=C(C)SC12 (stereo not drawn) [Example 5] ?
63

MIC for NCCSCC1=C(C(=O)O)N2C(=O)CC2S1 (stereo not drawn) [Example 88] ?
16

MIC for N[C@H]1C[C@@H](C2=C(C(=O)O)N3C(=O)C[C@H]3S2)C1 [Example 78] ?
8

MIC for O=C(O)C1=C(COc2ccccc2)S[C@@H]2CC(=O)N12 [Preparation 12, 2-Phenoxymethylpenem-3-carboxylic Acid] ?
1

MIC for CSCC1=C(C(=O)O)N2C(=O)C[C@H]2S1 [Preparation 9] ?
16

MIC for Cc1cc(C)n(CC2=C(C(=O)O)N3C(=O)CC3S2)n1 (stereo not drawn) [Example 77] ?
16

MIC for O=C(O)CCC1=C(C(=O)O)N2C(=O)CC2S1 (stereo not drawn) [Preparation 11] ?
63

###

For each record, write down the corresponding log10 of MIC.
Heads up, the numbers here are log10 of MIC in µg/mL units.

Entry CC(C)(C)CC1=C(C(=O)O)N2C(=O)CC2S1 (centres unmarked) , system Ser. marcescens A-20019: what log10 of MIC was measured?
2.10

Entry O=C([O-])C1=C(c2ccccc2)S[C@@H]2CC(=O)N12.[Na+] [Preparation 7, Sodium 2-Phenylpenem-3-carboxylate] , system Ser. marcescens A-20019: what log10 of MIC was measured?
1.51

Entry NCCSCC1=C(C(=O)O)N2C(=O)CC2S1 (centres unmarked) , system Ser. marcescens A-20019: what log10 of MIC was measured?
0.90

Entry NCC[S+]([O-])CC1=C(C(=O)O)N2C(=O)C[C@H]2S1 (some centres unmarked) , system Ser. marcescens A-20019: what log10 of MIC was measured?
1.51

Entry C[C@@H](O)[C@H]1C(=O)N2C(C(=O)O)=C(CN)S[C@H]12 (relative stereo) , system Ser. marcescens A-20019: what log10 of MIC was measured?
1.20

Entry "CCCC1=C(C(=O)O)N2C(=O)C[C@H]2S1" , system Ser. marcescens A-20019: what log10 of MIC was measured?
1.80

Entry O=C(O)CCC1=C(C(=O)O)N2C(=O)CC2S1 (centres unmarked) , system Ser. marcescens A-20019: what log10 of MIC was measured?
0.60

Entry O=C([O-])C1=C(COCc2ccccc2)S[C@@H]2CC(=O)N12.[Na+] [Preparation 14 (Na^+ Salt)] , system Ser. marcescens A-20019: what log10 of MIC was measured?
1.80

###

// MIC collected for Ser. marcescens A-20019
Quick note: give the figure in µg/mL, leave out the unit.

MIC for O=C(O)C1=C(c2ccco2)SC2CC(=O)N12 (centres unmarked) ?
16

MIC for O=C(O)C1=C(CCC[N+](=O)[O-])SC2CC(=O)N12 (centres unmarked) ?
4

MIC for CSC1C(=O)N2C(C(=O)O)=C(C)SC12 (centres unmarked) ?
63

MIC for COCOC[C@@H](O)[C@H]1C(=O)N2C(C(=O)O)=C(C)S[C@H]12 (relative stereo) ?
63

MIC for O=C([O-])C1=C(Cc2ccccc2)S[C@@H]2CC(=O)N12.[Na+] [Preparation 21, Sodium 2-Benzylpenem-3-carboxylate] ?
63

MIC for CC1=C(C(=O)O)N2C(=O)[C@H](CNC=O)[C@H]2S1 (relative stereo) ?
63

MIC for "CCC1=C(C(=O)O)N2C(=O)C[C@H]2S1" ?
4

MIC for CC(=O)NCCC1=C(C(=O)O)N2C(=O)CC2S1 (centres unmarked) ?
4

###

For each record, write down the corresponding concentration at 0.75 h.
Assay: Mouse blood levels after intramuscular administration
Assay type: in vivo
Conditions: 45 minutes after IM 40 mg/kg, average of 6 mice, read-out: Mouse blood level
Quick note: give the figure in ng/mL, leave out the unit.

concentration at 0.75 h for NCCC1=C(C(=O)O)N2C(=O)CC2S1 (stereo not shown) ?
9400

concentration at 0.75 h for NCCCC1=C(C(=O)O)N2C(=O)CC2S1 (stereo not shown) [Example 22, Sodium 2-Aminopropylpenem-3-carboxylate] ?
16500

concentration at 0.75 h for NCCOCC1=C(C(=O)O)N2C(=O)CC2S1 (stereo not shown) ?
7500

concentration at 0.75 h for NCCCCC1=C(C(=O)O)N2C(=O)CC2S1 (stereo not shown) ?
13200

concentration at 0.75 h for C[C@@H](O)[C@H]1C(=O)N2C(C(=O)O)=C([C@H]3C[C@H](N)C3)S[C@H]12 (relative stereo) ?
17600

concentration at 0.75 h for "NCCCCCC1=C(C(=O)O)N2C(=O)C[C@H]2S1" ?
23300

concentration at 0.75 h for "N[C@H]1C[C@@H](C2=C(C(=O)O)N3C(=O)C[C@H]3S2)C1" ?
6600

###

// MIC collected for Str. pyogenes A-9604

Entry CCCC1=C(C(=O)O)N2C(=O)C[C@H]2S1 [Preparation 15, 2-Propylpenem-3-carboxylic Acid] , system Str. pyogenes A-9604: what MIC was measured?
8 µg/mL

Entry CC(N)C1=C(C(=O)O)N2C(=O)CC2S1 (stereo not shown) [Example 72] , system Str. pyogenes A-9604: what MIC was measured?
2 µg/mL

Entry COC1=C(C(=O)[O-])N2C(=O)C[C@H]2S1.[Na+] [Preparation 17, Sodium 2-Methoxypenem-3-carboxylate] , system Str. pyogenes A-9604: what MIC was measured?
> 2 µg/mL

Entry NCc1ccc(C2=C(C(=O)O)N3C(=O)CC3S2)cc1 (stereo not shown) [Example 74] , system Str. pyogenes A-9604: what MIC was measured?
0.001 µg/mL

Entry N=C(NCC1=C(C(=O)O)N2C(=O)CC2S1)c1ccccc1 (stereo not shown) [Example 108] , system Str. pyogenes A-9604: what MIC was measured?
0.25 µg/mL

Entry CSC1C(=O)N2C(C(=O)O)=C(C)SC12 (stereo not shown) [Example 5] , system Str. pyogenes A-9604: what MIC was measured?
4 µg/mL

Entry C[C@@H](O)[C@H]1C(=O)N2C(C(=O)O)=C(COCCN)S[C@H]12 (relative stereo) [66,96] , system Str. pyogenes A-9604: what MIC was measured?
0.03 µg/mL

Entry O=C(O)C1=C(c2cscn2)SC2CC(=O)N12 (stereo not shown) [Preparation 27, 2-(4'-Thiazolyl)penem-3-carboxylic Acid] , system Str. pyogenes A-9604: what MIC was measured?
0.25 µg/mL

Entry CCCCC1=C(C(=O)[O-])N2C(=O)C[C@H]2S1.[Na+] [Preparation 24, Sodium 2-butylpenem-3-carboxylate] , system Str. pyogenes A-9604: what MIC was measured?
1 µg/mL

Entry O=C(O)C1=C(C2CC2)SC2CC(=O)N12 (stereo not shown) [Example 14, 2-Cyclopropylpenem-3-carboxylic Acid] , system Str. pyogenes A-9604: what MIC was measured?
0.25 µg/mL

###

System: Staph. aureus (Meth-Res) A-15097
Test: MIC, tube dilution, Staphylococcus aureus A15097 (Meth-Res)
Assay type: cell-based
Conditions: Staphylococcus aureus, Staph. aureus A15097 (Meth-Res); overnight 37° C.; read-out: Minimum Inhibitory Concentration (M.I.C.)
observable: MIC (µg/mL)
Quick note: give the figure in µg/mL, leave out the unit.

MIC for NCC1=C(C(=O)O)N2C(=O)CC2S1 (stereo not shown) ?
63

MIC for CC(=O)NCCC1=C(C(=O)O)N2C(=O)CC2S1 (stereo not shown) ?
125

MIC for O=C(O)C1=C(c2cscn2)SC2CC(=O)N12 (stereo not shown) ?
8

###

observable: MIC

Entry CCCC(N)C1=C(C(=O)O)N2C(=O)CC2S1 (stereo not drawn) [Example 82] , system Klebsiella species A20468: what MIC was measured?
> 125 µg/mL

Entry CCC1C(=O)N2C(C(=O)[O-])=C(C)S[C@H]12.[Na+] (stereo partly drawn) [1 (cis)] , system Klebsiella species A20468: what MIC was measured?
> 125 µg/mL

Entry CC(C)OP(=O)(CCC1=C(C(=O)O)N2C(=O)CC2S1)OC(C)C (stereo not drawn) [Preparation 54] , system Klebsiella species A20468: what MIC was measured?
63 µg/mL

Entry NC=NCC1=C(C(=O)O)N2C(=O)CC2S1 (stereo not drawn) [16 (6)] , system Klebsiella species A20468: what MIC was measured?
> 125 µg/mL

Entry NCCCC1=C(C(=O)O)N2C(=O)CC2S1 (stereo not drawn) [Example 51, 2-(γ-Aminopropyl)penem-3-carboxylic Acid] , system Klebsiella species A20468: what MIC was measured?
> 63 µg/mL

Entry Cn1cc(C2=C(C(=O)O)N3C(=O)CC3S2)cn1 (stereo not drawn) [Example 15] , system Klebsiella species A20468: what MIC was measured?
> 125 µg/mL

Entry NCC1CC1C1=C(C(=O)O)N2C(=O)CC2S1 (stereo not drawn) [Example 79] , system Klebsiella species A20468: what MIC was measured?
> 63 µg/mL

Entry NCCOCC1=C(C(=O)O)N2C(=O)CC2S1 (stereo not drawn) [Example 86] , system Klebsiella species A20468: what MIC was measured?
> 125 µg/mL

Entry O=C([O-])C1=C(COCc2ccccc2)S[C@@H]2CC(=O)N12.[Na+] [Preparation 14 (Na^+ Salt)] , system Klebsiella species A20468: what MIC was measured?
> 125 µg/mL
